system: Wolbachia pipientis; assay: Anti-Wolbachia Cell-Based Screen; assay type: functional; design: scale not given: in the data most compounds retested in dose-response had high values; settings: 5 µM
In all, about 48,000 compounds went through this assay and about 13,000 (27%) showed an effect of 50% or more. The list shows a part of the results.
value.kind: Percent Effect (%)
Output spec: scalar in %, unitless text.

Ask | Report Percent Effect for O=C(O)Cn1nc(-c2ccccc2F)ccc1=O please.
Reply | 139.2

Next up:
Ask | Please look up its Percent Effect: CCc1c(C)sc2ncnc(N3CCN(C4CCOCC4)CC3)c12
Reply | 8.782

---

test system: Wolbachia pipientis; assay: Anti-Wolbachia Cell-Based Screen; assay type: functional; design: scale not given: in the data most compounds retested in dose-response had high values; conditions: 5 µM
Screen size: about 48,000 compounds; about 13,000 (27%) showed an effect of 50% or more. The list shows a part of the results.
Each entry below lists one item and its recorded Percent Effect value.
Field format: number, assumed %, no unit text.

Worked set:
Ask | Query Percent Effect on Wolbachia pipientis for CCOc1ncnc2c1CCN(S(=O)(=O)C1CC1)CC2
Reply | 10.58

Ask | Repeat with O=C(NCc1cn2c(n1)CN(Cc1cccc(F)c1)CC2)C1CCC1.O=C(O)C(F)(F)F
Reply | -4.288

Further cases:
Ask | Hello, I am looking for reported Percent Effect with Wolbachia pipientis for CN(Cc1cn2c(n1)CN(Cc1ccc(F)cc1)CC2)Cc1ccco1.O=C(O)C(F)(F)F.O=C(O)C(F)(F)F . Could you help?
Reply | 12.2

Ask | Do the same for CCOC(=O)C1CCCN(c2ccc(-c3nc(C)no3)cn2)C1 (stereo not drawn) please
Reply | -3.256

Ask | What about this compound? COCc1nc2cc(NCc3ccncc3)ccc2o1
Reply | 5.074

Ask | Another compound to look at: O=C(CCC(=O)N1CCOCC1)NCc1cccnc1-n1cccn1
Reply | 4.294

Ask | Next entry: CCOc1cc(CNCc2ncc[nH]2)c(Cl)cc1OC(C)C
Reply | -9.365

Ask | Queued: CCOC(=O)C1CCCN(c2nccc(-n3nc(C)cc3C)n2)C1 (stereo not drawn)
Reply | 112.5

Ask | Entry to check: Cc1oncc1C(=O)N1CC[C@H]2CO[C@H](CN3CCCC3)[C@H]2C1
Reply | 2.112

Ask | Next compound up: c1nc2c(c(N3CCOCC3)n1)CCNCC2
Reply | 91.19

Ask | Do the same for Cc1cc(C)n(-c2ccnc(N3CCC(C(=O)N4CCCC4)CC3)n2)n1 please
Reply | 4.916

Ask | Also, O=C(Cn1nc2ccccc2n1)N1CCCC(O)(CO)C1 (stereo not drawn) please.
Reply | -10.36

Ask | Follow-up item: CC(O)(CNC(=O)c1cccnc1-n1cccn1)c1ccco1 (stereo not drawn)
Reply | 109

Ask | Can you check CN1CCN(c2ncnc3c2CCN(S(=O)(=O)C2CC2)CC3)CC1.O=C(O)C(F)(F)F next?
Reply | 114.5

Ask | Another: CSCC(=O)Nc1ncn(Cc2cccc(Br)c2)n1
Reply | 13.99

Ask | Same for CCCc1noc(CCC(=O)N2CCN(C)CC2c2ccccc2)n1 (stereo not drawn)
Reply | 7.741

Ask | Try this compound too: Cc1ccc(CN2C[C@@H]3[C@@H](C(=O)NCC4CC4)CCS(=O)(=O)[C@@H]3C2)cc1.O=C(O)C(F)(F)F
Reply | 110.7

Ask | Again, but for CCN(Cc1noc(C)n1)C(=O)CCn1c(C)cc2ccccc21
Reply | -6.675

Ask | Follow-up entry: Cc1cc(C(=O)N[C@H]2CN(CCC(N)=O)C[C@@H]2C2CC2)sc1C
Reply | 6.856

Ask | Entry O=C(O)C(F)(F)F.O=C1[C@H]2CN(CC3CCOCC3)C[C@H]2CN1c1ccsc1 please
Reply | -12.76

Ask | Please give the result for Cc1cnn(CCNCC(=O)Nc2ccc(Cl)cn2)c1 too.
Reply | 6.715

Ask | And CNC(=O)c1cccnc1NCc1ccc(-n2cccn2)cc1 ?
Reply | -16.78

Ask | Now give it for COc1ccc(CN2CCn3cc(CN4CCCCC4)nc3C2)cc1.O=C(O)C(F)(F)F.O=C(O)C(F)(F)F too.
Reply | 13.43

Ask | Cc1cnc(N2CCc3ncnc(N4CCN(C)CC4)c3CC2)nc1.O=C(O)C(F)(F)F ?
Reply | -5.23

Ask | Next entry: CCOCc1ccccc1NC(=O)NCC(C)(O)c1ccsc1 (stereo not drawn)
Reply | -1.013

Ask | Next compound: Cc1ncnc2c1CCN(S(=O)(=O)C1CC1)CC2
Reply | 105
